- Target desc: CCR9 (Homo sapiens, UniProt P51686)
- Sequence (P51686 whole entry): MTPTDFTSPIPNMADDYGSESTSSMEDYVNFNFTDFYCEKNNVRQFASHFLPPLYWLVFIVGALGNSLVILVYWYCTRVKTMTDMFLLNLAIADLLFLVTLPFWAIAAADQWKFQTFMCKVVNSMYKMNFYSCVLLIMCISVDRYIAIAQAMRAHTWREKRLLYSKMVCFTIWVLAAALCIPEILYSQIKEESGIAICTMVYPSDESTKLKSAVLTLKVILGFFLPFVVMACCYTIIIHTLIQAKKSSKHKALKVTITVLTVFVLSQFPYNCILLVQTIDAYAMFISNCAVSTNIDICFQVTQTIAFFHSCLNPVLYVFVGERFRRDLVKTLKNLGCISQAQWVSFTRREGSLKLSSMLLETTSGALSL
- Experiment description: Ca^2+ mobilization assay, CCR9
- Assay type: cell-based
- Experimental context: Ca^2+ mobilization assay
pIC50: −log10 of the molar value.

| Molecule | Target desc | pIC50 |
| --- | --- | --- |
| NC(=O)c1ccccc1Oc1ncnc2sc(-c3ccccc3)cc12 [Hit 1] | CCR9 (Homo sapiens, UniProt P51686) | 4.24 |

====

- Target desc: CCR7 (Homo sapiens)
- Construct: expressed in transfected cells
- Sequence (P32248 25-378, species assumed): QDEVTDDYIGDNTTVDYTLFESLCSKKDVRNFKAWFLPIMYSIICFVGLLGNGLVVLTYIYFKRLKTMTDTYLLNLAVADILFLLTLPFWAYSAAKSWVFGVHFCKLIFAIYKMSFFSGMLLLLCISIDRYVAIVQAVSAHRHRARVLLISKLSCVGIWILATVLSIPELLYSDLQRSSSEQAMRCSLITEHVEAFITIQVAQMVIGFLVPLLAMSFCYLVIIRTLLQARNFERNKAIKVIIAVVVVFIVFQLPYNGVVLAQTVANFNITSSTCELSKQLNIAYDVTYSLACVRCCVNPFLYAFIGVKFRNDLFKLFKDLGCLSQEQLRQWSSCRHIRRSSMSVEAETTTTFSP
- Experiment description: TANGO β-arrestin antagonist assay, CCR7
- Type: cell-based
- Experimental context: TANGO β-arrestin antagonist assay, CCR7; read-out: IC50, antagonistic activity
pIC50: −log10 of the molar value.

| Chemical structure | pIC50 |
| --- | --- |
| NC(=O)c1ccccc1Oc1ncnc2sc(-c3ccccc3)cc12 | 5.04 |
